Data origin: patent US5061794A

Tested on: P. vulgaris No. 33
protocol description: in vitro antibacterial activity, agar plate dilution method (MIC)
Format: cell-based
condition summary: Proteus vulgaris, NO.33, 16 h, read-out: Minimum Inhibitory Concentration (MIC), *P. vulgaris No. 33, lactamase-producing strain; 10^6 CFU/ml
Please go through the items and note down their MIC.
Express it in µg/mL; write the number only.

*Q* What value of measured MIC is listed for CC(C)(O/N=C(\C(=O)N[C@@H]1C(=O)N2C(C(=O)O)=C(CSc3nc(-c4ccccc4)cs3)CS[C@H]12)c1csc(N)n1)C(=O)O [compound 11, reference compound] ?
*A* 0.78

*Q* What value of measured MIC is listed for Nc1nc(/C(=N/OC2(C(=O)O)CC2)C(=O)N[C@@H]2C(=O)N3C(C(=O)O)=C(CSc4nnc(-c5ccc(O)c(O)c5)o4)CS[C@H]23)cs1 ?
*A* 0.025

*Q* What value of measured MIC is listed for CC(C)ON=C(C(=O)NC1C(=O)N2C(C(=O)O)=C(CSc3nc(-c4ccc(O)c(O)c4)cs3)CSC12)c1csc(N)n1 (stereo not drawn) ?
*A* 0.05

* * *

Test system: S. marcescens No. 16-2
protocol description: in vitro antibacterial activity, agar plate dilution method (MIC)
Format: cell-based
condition summary: Serratia marcescens, NO.162, 16 h, read-out: Minimum Inhibitory Concentration (MIC), *S. marcescens No. 16-2, lactamase-producing strain; 10^6 CFU/ml
Experimental: The in vitro antibacterial activities of the compounds of the present invention against various microorganisms, were measured by the following agar plate dilution method. One platinum loopfull of each test microorganism incubated overnight in Mueller Hinton broth, was inoculated to Mueller Hinton agar (inoculum size: 10^6 CFU/ml). […] After incubation at 37° C. for 16 hours, the minimum inhibitory concentrations (MIC: μg/ml) were measured.
Please go through the items and note down their MIC.
Express it in µg/mL; write the number only.

*Q* What value of measured MIC is listed for C#CCO/N=C(\C(=O)N[C@@H]1C(=O)N2C(C(=O)O)=C(CSc3nnc(-c4ccc(O)c(O)c4)o3)CS[C@H]12)c1csc(N)n1 [compound 9] ?
*A* 6.25

*Q* What value of measured MIC is listed for CC(=O)Oc1ccc(-c2nc(SCC3=C(C(=O)O)N4C(=O)C(NC(=O)C(=NOC(C)(C)C(=O)O)c5csc(N)n5)C4SC3)sc2CC(=O)O)cc1OC(C)=O (stereo not drawn) [Example 59 (II)] ?
*A* 0.78

*Q* What value of measured MIC is listed for Nc1nc(C(=NOCC(=O)O)C(=O)NC2C(=O)N3C(C(=O)O)=C(CSc4nc(-c5ccc(O)c(O)c5)cs4)CSC23)cs1 (stereo not drawn) [Ex. 43] ?
*A* 1.56

* * *

System: E. coli CSH(RE45)
protocol description: microbe, parasite or virus in culture
Assay type: cell-based
condition summary: Escherichia coli, 16 h, read-out: Minimum Inhibitory Concentration (MIC), *E. coli CSH(RE45), lactamase-producing strain; 10^6 CFU/ml
Where a name gives a salt, the structure may show the parent alone.
measured parameter: MIC (µg/mL)
Express it in µg/mL; write the number only.

*Q* What value of measured MIC is listed for CO/N=C(\C(=O)N[C@@H]1C(=O)N2C(C(=O)O)=C(CSc3nnc(-c4ccccc4)s3)CS[C@H]12)c1csc(N)n1 [compound 5, trifluoroacetate, reference compound] ?
*A* 0.2

*Q* What value of measured MIC is listed for CCO/N=C(\C(=O)N[C@@H]1C(=O)N2C(C(=O)O)=C(CSc3nnc(-c4ccc(OC(C)=O)c(OC(C)=O)c4)o3)CS[C@H]12)c1csc(N)n1 ?
*A* 0.78

*Q* What value of measured MIC is listed for CO/N=C(\C(=O)N[C@@H]1C(=O)N2C(C(=O)O)=C(CSc3nnc(-c4ccc(OC(C)=O)c(OC(C)=O)c4)o3)CS[C@H]12)c1csc(N)n1 ?
*A* 0.78
